test: qHTS Primary assay for Inhibitors of Plasmodium falciparum Dd2 growth in vitro; also: nearly all actives have a fitted effect of over 65% in size; conditions: P. falciparum Dd2 growth, SYBR Green, 72 h; series mostly up to 28.9 µM
About 5,300 (4.4%) of roughly 120,000 compounds were called active. Another 22% or so got no clear call; they are omitted. Calls follow the shape of the dose curve; as a rule, active = well fitted inhibition curve with a large enough effect; inconclusive = small, poorly fitted or top-dose-only effect; inactive = no such curve, though single readings can be large or run the other way. The entries come from a sample that favours actives as a whole.
Answer with one of the outcomes active, inactive

MOLECULE | DISCRETE_LABEL
CCn1cnnc1CC1CCN(C(=O)c2cc(-c3ccc(F)cc3)nc3ccccc23)CC1 | inactive
Cc1ccc(C(=O)Nc2ccc(C(O)[C@H]3COCC(=O)N3Cc3ccccc3F)cc2)cc1 (some centres undefined) | inactive
CCN1C(=O)COC[C@@H]1C(O)c1ccc(NC(=O)Cc2ccc(OC)cc2)cc1 (some centres undefined) | inactive

--- query ---
q: How did this test come out for COCC(=O)Nc1ccc([C@@H](O)[C@H]2COCC(=O)N2Cc2ccc(C(F)(F)F)cc2)cc1 ?
a: active

* * *

experiment: qHTS Primary assay for Inhibitors of Plasmodium falciparum Dd2 growth in vitro; also: nearly all actives have a fitted effect of over 65% in size; also: potency is read from the fitted curve at half-maximal effect; settings: P. falciparum Dd2 growth, SYBR Green, 72 h; series mostly up to 28.9 µM
The campaign covered roughly 120,000 compounds. About 5,300 (4.4%) were called active. About 22% were inconclusive and are not listed. The sample holds actives, similar compounds and a random draw of the others, so the mix is not that of the screen.
ASSAY_METRIC: Potency

MOLECULE | Potency
O=C(c1ccc2[nH]ccc2c1)N1CCC(N2CC(OCC3CC3)C23CCOCC3)CC1 (configuration not stated) | inactive
O=C(NC1CCN(Cc2ccccc2)CC1)c1ccc(Cn2c(=O)c3ccccc3n(Cc3cccc(F)c3)c2=O)cc1 | 7.94 µM (active)
Cc1ccc2oc(C(=O)N(C)CCc3ccccc3)c(C)c2c1 | inactive
Cn1cc(CN2CCOC[C@H](Oc3ccc(S(C)(=O)=O)cc3)C2)c2ccccc21 | 10 µM (active)
CN(CC(=O)N1CCCC(Cc2nncn2-c2ccccc2)C1)S(=O)(=O)c1cccs1 (configuration not stated) | inactive

Batch request: Potency per item, same order as input.
1. CC(C)CN1CCOC[C@H](Oc2ccc(S(C)(=O)=O)cc2)C1
2. CCOc1ccc(CCNc2nc(-c3ccccc3)no2)cc1
3. COc1ccc(Nc2ncc3c(n2)CCN(C(=O)OC(C)(C)C)C3)cc1
4. CCn1cc(CN2CCC(N3CC(OCC4CC4)C34CCCCC4)CC2)cn1 (configuration not stated)
5. O=C(O)c1c(CNCc2cccc(F)c2)c2ccccc2n1Cc1ccccc1
6. COCCOC1CN(C2CCN(C(=O)c3ccc(OC)nc3)CC2)C12CCCCC2 (configuration not stated)
7. CCOc1ccc(CNC(=O)c2cccc(Nc3nc4ccccc4n4nnnc34)c2)cc1OC

a:
["inactive", "inactive", "5.62 µM (active)", "1.41 µM (active)", "inactive", "inactive", "11.2 µM (active)"]

* * *

experiment: qHTS Primary assay for Inhibitors of Plasmodium falciparum Dd2 growth in vitro; also: nearly all actives have a fitted effect of over 65% in size; details: P. falciparum Dd2 growth, SYBR Green, 72 h; series mostly up to 28.9 µM
Among all 120,000 compounds or so, about 5,300 (4.4%) were called active. Inconclusive results (about 22%) are left out. Calls come from the whole dose curve; as a rule, active = well fitted inhibition curve with a large enough effect; inconclusive = small, poorly fitted or top-dose-only effect; inactive = no such curve, though single readings can be large or run the other way. The sample holds actives, similar compounds and a random draw of the others, so the mix is not that of the screen.
Answer with one of the outcomes 1 (yes) = active, 0 (no) = inactive

COMPOUND | DISCRETE_LABEL
O=C(CCc1conc1-c1ccccc1F)NCc1cccc(C(F)(F)F)c1 | 0 (no)
O=C(N1CCCCCC1CN1CCOCC1)C1(c2ccccc2)CC1 (stereo unspecified) | 1 (yes)

--- query ---
q: How did this test come out for O=C1NCCCCCN(C(=O)NCCc2ccccc2)[C@H]2CCC[C@@H]12 ?
a: 0 (no)

* * *

Assay: qHTS Primary assay for Inhibitors of Plasmodium falciparum Dd2 growth in vitro; also: nearly all actives have a fitted effect of over 65% in size
Conditions: P. falciparum Dd2 growth, SYBR Green, 72 h; series mostly up to 28.9 µM
From the text: Malaria, a parasitic disease spread to humans through the bite of a Plasmodium infected Anopheles mosquito, continues to be a global health burden affecting millions of people, with an estimated 228 million cases and 405,000 deaths in 2018. […] Malaria-vivax Assay Protocol: PROTOCOL TABLE (as described by Inglese et al., 2007) SEQUENCE No. (e.g., 1, 2, 3, etc.); […] […] Compound Management for Quantitative High-Throughput Screening. […]
The campaign covered roughly 120,000 compounds. About 5,300 (4.4%) were called active. Inconclusive results (about 22%) are left out. Calls come from the whole dose curve; as a rule, active = well fitted inhibition curve with a large enough effect; inconclusive = small, poorly fitted or top-dose-only effect; inactive = no such curve, though single readings can be large or run the other way. The list comes from a sample in which actives are over-represented; it also holds close analogues and randomly drawn compounds.
Answer with one of the outcomes active, inactive

Please review the entries below; each comes with its answer.
COMPOUND | DISCRETE_LABEL
CCc1cc(=O)n(CC(=O)Nc2ccc(OC)c(OC)c2)c(N2CCOCC2)n1 | inactive
COc1ccc(C2Cn3nnc(-c4nc(-c5ccc(OC(C)C)cc5)no4)c3CO2)cc1 (stereo not given) | inactive
COc1ccc(-c2c(C)c3ccc(O)c(CN4CCCC4)c3oc2=O)cc1OC | inactive
COc1ccc(CCC(=O)N2CCC(Cc3nncn3C(C)C)C2)cc1 (stereo not given) | inactive
O=C(Nc1ccccc1)N1CCc2nc(-c3ccccc3)nc(-c3ccc(Cl)cc3)c2C1 | active

q: How did this test come out for Cc1nc([C@@H]2CN(C(=O)CCCc3nc4ccccc4s3)C[C@H]2C(N)=O)n[nH]1 ?
a: inactive

q: How did this test come out for O=C(c1cccc(F)c1)N1CCOC[C@H](Oc2ccc(C(F)(F)F)cc2)C1 ?
a: inactive

q: How did this test come out for Cc1nc2ncccn2c1C(=O)N[C@@H]1CCOC[C@H]1Oc1ccccn1 ?
a: inactive

q: How did this test come out for CC(=O)N1CCc2nc(C3CC3)nc(-c3ccc(Cl)cc3)c2C1 ?
a: inactive

q: How did this test come out for COCCOc1ccnc(-c2noc([C@@H]3CCCN3Cc3ccc(Cl)cc3)n2)c1 ?
a: active

q: How did this test come out for CN(C)c1ccc(NC(=O)CSc2nc(-c3ccco3)cc(C(F)(F)F)n2)cc1 ?
a: inactive

* * *

assay: qHTS Primary assay for Inhibitors of Plasmodium falciparum Dd2 growth in vitro; also: nearly all actives have a fitted effect of over 65% in size; also: potency is read from the fitted curve at half-maximal effect; details: P. falciparum Dd2 growth, SYBR Green, 72 h; series mostly up to 28.9 µM
Out of some 120,000 compounds screened, about 5,300 (4.4%) were called active. About 22% were inconclusive and are not listed. Only a selection was taken, and actives are over-represented in it overall.
ASSAY_METRIC: Potency

Worked examples, 5 compounds total:
COMPOUND | Potency
O=C(c1ccccc1-n1cccn1)N1CCc2c(nc[nH]c2=O)C1 | inactive
Cc1ccccc1CN1CCc2ncc(C(=O)NCCOc3ccccc3)n2CC1 | inactive
CCOc1ccccc1N(CC)C(=O)Nc1cn(C)c(=O)c2ccccc12 | inactive
Cc1ccccc1CN1CCC(CNC(=O)c2cc3ccc4cccnc4c3[nH]2)CC1 | 10 µM (active)
CCOc1ccccc1C(=O)N1CCC(Oc2ncccc2C(=O)N(C)C)C1 (stereo unspecified) | inactive

q: Request the reported Potency associated with CCOc1ccccc1N(CC)C(=O)c1cc2ccc3cccnc3c2[nH]1
a: 12.6 µM (active)

* * *

experiment: qHTS Primary assay for Inhibitors of Plasmodium falciparum Dd2 growth in vitro; also: nearly all actives have a fitted effect of over 65% in size; settings: P. falciparum Dd2 growth, SYBR Green, 72 h; series mostly up to 28.9 µM
Among all 120,000 compounds or so, about 5,300 (4.4%) were called active. Inconclusive results (about 22%) are left out. Calls follow the shape of the dose curve; as a rule, active = well fitted inhibition curve with a large enough effect; inconclusive = small, poorly fitted or top-dose-only effect; inactive = no such curve, though single readings can be large or run the other way. Only a selection was taken, and actives are over-represented in it overall.
Answer with one of the outcomes active, inactive

MOLECULE | DISCRETE_LABEL
CCN(CC)CCNC(=O)CN1N=C(c2ccc(OC)cc2)CCC1=O | inactive
O=C1CC(c2ccccc2)N(Cc2cn[nH]c2-c2ccc(F)cc2)CCCCCN1 (stereo not given) | active
COc1ccc(OC)c(S(=O)(=O)N2CCCCCCNC(=O)CC2c2ccccc2)c1 (stereo not given) | inactive
O=C(c1cc2cccnn2n1)N1CCOCC1 | inactive
Cc1ccc(NC(=O)Cn2cccc2-c2nc(-c3ccc4c(c3)OCO4)no2)cc1Cl | inactive
Cn1cc(CC(=O)N2CCCc3ncc(C(=O)NCc4ccc(F)cc4)cc32)c2ccccc21 | inactive
Cn1cc(CNC(=O)C[C@@H]2C[C@H]3O[C@H](CNC4CCCC4)[C@@H](O)[C@H]3O2)cn1 | inactive
Cc1cccc(-c2noc(CCC(=O)N[C@H]3CC[C@H]3NC3CCCC3)n2)c1 | inactive
CCOCCCNC(=O)N1C[C@@H](Oc2cccnc2)C[C@@H]1C(=O)N1CCOCC1 | inactive

--- query ---
q: How did this test come out for O=C(c1cccc(Cl)c1)N1CCN(c2cc(-c3cccs3)[nH]n2)CC1 ?
a: inactive

* * *

experiment: qHTS Primary assay for Inhibitors of Plasmodium falciparum Dd2 growth in vitro; also: nearly all actives have a fitted effect of over 65% in size; details: P. falciparum Dd2 growth, SYBR Green, 72 h; series mostly up to 28.9 µM
Out of some 120,000 compounds screened, about 5,300 (4.4%) were called active. Another 22% or so got no clear call; they are omitted. Calls come from the whole dose curve; as a rule, active = well fitted inhibition curve with a large enough effect; inconclusive = small, poorly fitted or top-dose-only effect; inactive = no such curve, though single readings can be large or run the other way. The sample holds actives, similar compounds and a random draw of the others, so the mix is not that of the screen.
Answer with one of the outcomes active, inactive

Please review the entries below; each comes with its answer.
COMPOUND | DISCRETE_LABEL
COc1ccc(-c2noc(CC3CCN(C(=O)Cc4ccc(C)cc4)CC3)n2)cc1 | inactive
O=C(c1nc2c(o1)CCN(Cc1ccccc1F)CC2)N1CCOCC1 | inactive
COc1ccc(-c2cc([C@H]3CN4CC[C@H]3C[C@@H]4CNS(=O)(=O)Cc3ccccc3)n(C)n2)cc1OC | active

q: How did this test come out for O=C(NCCc1ccccn1)C1CCCN(c2nc(-c3ccccc3)nc3c2CCC3)C1 (stereo not given) ?
a: inactive

q: How did this test come out for Cc1ccccc1C(=O)NCc1cccnc1Oc1cccc(C(F)(F)F)c1 ?
a: inactive

q: How did this test come out for COC[C@H]1CCCN1Cc1nc(C2(O)CCN(CC3CCCCC3)CC2)cs1 ?
a: active

q: How did this test come out for O=C(NCc1cccnc1)C1CCN(c2nc(-c3ccccc3)nc3c2CCC3)CC1 ?
a: inactive

q: How did this test come out for COc1ccc(NC(=O)c2ccc3nc(C(C)C)oc3c2)cc1OC ?
a: inactive

q: How did this test come out for NC(=O)c1cccc(-c2ccc3c(n2)CN(Cc2ccc(C(F)(F)F)cc2)C(=O)CO3)c1 ?
a: inactive
